Each recorded value in this set is attributed to paper PMC7894572.

Listing of entries alongside the reported melting point.
result_type: melting point (°C)

compound: CC(C(=O)Nc1ccc(S(N)(=O)=O)cc1)c1cccc2ccccc12 (centres unmarked)
value_observed: 206
//
compound: C[C@@H](NC(=O)c1ccccc1Br)c1cccc2ccccc12
value_observed: 153
//
compound: C[C@@H](NC(=O)c1ccccc1)c1cccc2ccccc12 [Compound 2 c, N ‐[(1R)‐1‐Naphth‐1‐ylethyl]benzamide]
value_observed: 195
//
compound: C[C@@H](NC(=O)c1ccccc1Cl)c1cccc2ccccc12
value_observed: 133
//
compound: C[C@@H](NC(=O)C(c1ccccc1)c1ccccc1)c1cccc2ccccc12
value_observed: 152
//
compound: C[C@@H](NC(=O)c1ccccc1I)c1cccc2ccccc12
value_observed: 161
//
compound: CC(C(=O)Nc1ccccc1F)c1cccc2ccccc12 (centres unmarked)
value_observed: 116
//
compound: C[C@@H](NC(=O)c1ccccc1C#N)c1cccc2ccccc12
value_observed: 181
//
compound: C[C@@H](NC(=O)c1ccccc1F)c1cccc2ccccc12
value_observed: 135
//
compound: Cc1cc(N)ccc1C(=O)N[C@H](C)c1cccc2ccccc12.Cl
value_observed: 231
//
compound: Cc1cccc2c1CN([C@H](C)c1cccc3ccccc13)C2.Cl
value_observed: 247
//
compound: C[C@@H](NC(=O)C(C)(C)C)c1cccc2ccccc12
value_observed: 131
//
compound: C[C@@H](NC(=O)C1CCCCC1)c1cccc2ccccc12
value_observed: 170
//
compound: CNS(=O)(=O)c1ccc(C)c(C(=O)N[C@H](C)c2cccc3ccccc23)c1
value_observed: 184
//
compound: CC(C(=O)NC1CCCCC1)c1cccc2ccccc12 (centres unmarked) [Compound 11 d, N ‐Cyclohexyl‐2‐naphth‐1‐ylpropanamide]
value_observed: 151
//
compound: Cc1ccccc1NC(=O)C(C)c1cccc2ccccc12 (centres unmarked)
value_observed: 151
//
compound: C[C@@H](NC(=O)Cc1ccccc1)c1cccc2ccccc12
value_observed: 130
